target: VEGF binding to heparin (HS-GAG) (Homo sapiens, UniProt P15692); construct: purchased Research and Development Systems; experiment: In vitro VEGF to HS-GAG binding assay (ELISA, heparin-BSA coated plate)
Sequence (P15692 27-191 isoform P15692-4): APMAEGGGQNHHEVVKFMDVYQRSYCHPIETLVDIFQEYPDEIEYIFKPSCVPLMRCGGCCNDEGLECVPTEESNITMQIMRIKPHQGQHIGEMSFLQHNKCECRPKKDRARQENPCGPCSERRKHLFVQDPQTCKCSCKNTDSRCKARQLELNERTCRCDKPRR
Response field label takes Met when IC50 is strictly below 400 nM and Not met in all other cases.

CCN1CCc2c(sc(NC(=O)c3ccc(C#N)cc3)c2-c2nc3ccccc3s2)C1: Met

Enquiry: Regarding CC(C)N1CCc2c(sc(NC(=O)c3ccc(N(C)C)cc3)c2-c2nc3ccccc3s2)C1 , kindly confirm whether its IC50 is beneath 400 nM.
Return: Not met

Enquiry: Regarding CCN1CCc2c(sc(NC(=O)c3cc(OC)c(OC)c(OC)c3)c2-c2nc3ccccc3s2)C1 , kindly confirm whether its IC50 is beneath 400 nM.
Return: Met

Enquiry: Regarding CC(=O)N1CCc2c(sc(NC(=O)c3ccc(C#N)cc3)c2-c2nc3ccccc3s2)C1 , kindly confirm whether its IC50 is beneath 400 nM.
Return: Met

Enquiry: Regarding COc1cccc(OCC(=O)Nc2sc3c(c2-c2nc4ccccc4s2)CCN(C)C3)c1 , kindly confirm whether its IC50 is beneath 400 nM.
Return: Not met
